# assayed.system: T1, human CD112R on Jurkat CD112R effector cells (human, UniProt Q6DKI7 1-326)
# T1 sequence (looked up): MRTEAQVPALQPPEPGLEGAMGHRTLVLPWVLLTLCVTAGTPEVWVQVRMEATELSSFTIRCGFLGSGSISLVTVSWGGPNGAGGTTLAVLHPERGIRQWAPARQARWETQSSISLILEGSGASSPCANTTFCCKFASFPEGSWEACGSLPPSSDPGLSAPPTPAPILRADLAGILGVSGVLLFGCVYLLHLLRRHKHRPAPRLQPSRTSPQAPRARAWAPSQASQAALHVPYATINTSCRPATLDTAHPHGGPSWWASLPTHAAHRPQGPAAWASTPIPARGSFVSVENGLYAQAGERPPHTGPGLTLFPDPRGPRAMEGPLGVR
# experiment.description: cell-based or functional assay
attribute.measured: Relative activity (%), EC50 COM701/EC50 antibody
Quick note: give the figure in %, leave out the unit.

binder	result.unit	reading
Hu42 (antibody, IgG4, V domains shown) VH: EVQLVESGGGLVQPGGSLRLSCAASGFTFSSYHMSWVRQAPGKGLELVSAINSNVISTYYLDTVKGRFTISRDNAKNSLYLQMNSLRAEDTAVYYCARHEDYYGFAMDYWGQGTLVTVSS VL: EIVMTQSPPTLSLSPGERVTLSCKASQSVSNDVAWYQQKPGQAPRLLIYYVSNRFTGIPARFSGSGSGTDFTLTISSLQPEDFAVYFCQQAYRSPWTFGQGTKLEIK	%	183

Item under review: Hu48 (antibody, IgG4, V domains shown) VH: EVQLVESGGGLVKPGGSLRLSCAASGFTFSSYHMSWVRQAPGKGLELVSAINSNVISTYYLDTVKGRFTISRDNAKNSLYLQMNSLRAEDTAVYYCARHEDYYGFAMDYWGQGTLVTVSS VL: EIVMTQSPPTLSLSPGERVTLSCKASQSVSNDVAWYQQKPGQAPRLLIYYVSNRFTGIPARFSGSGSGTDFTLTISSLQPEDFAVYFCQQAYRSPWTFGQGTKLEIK . Reported Relative activity (%), EC50 COM701/EC50 antibody?
176

Item under review: Hu36 (antibody, IgG4, V domains shown, humanized IgG4) VH: EVQLVESGGGLVQPGGSLRLSCAASGFTFSSYHMSWVRQAPGKGLELVAAISRDGDSTYYPDTVKGRFTISRDDAENSLYLQMNSLRAEDTAVYYCSRHEDYFGFAMDSWGQGTLVTVSS VL: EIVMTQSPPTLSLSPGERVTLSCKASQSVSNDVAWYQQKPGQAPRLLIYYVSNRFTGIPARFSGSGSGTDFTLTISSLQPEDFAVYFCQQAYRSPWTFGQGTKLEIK . Reported Relative activity (%), EC50 COM701/EC50 antibody?
160

Item under review: Hu11 (antibody, IgG4, V domains shown, humanized IgG4) VH: EVQLVESGGGLVKPGGSLRLSCAASGFTFSSYHMSWVRQAPGKGLELVSAINSNDINTYYLDTVKGRFTISRDIAKNSLYLQMNSLRAEDTAVYYCARHEDYYGFAMDYWGQGTLVTVSS VL: DIQMTQSPSSLSASVGDRVTITCKASQSVSNDVAWYQQKPGKAPKLLIYYVSNRFTGVPSRFSGSGSGTDFTLTISSLQPEDFATYFCQQAYRSPWTFGQGTKLEIK . Reported Relative activity (%), EC50 COM701/EC50 antibody?
148

Item under review: Hu6 (antibody, IgG4, V domains shown, humanized IgG4; also called Hu-06) VH: EVQLVESGGGLVQPGGSLRLSCAASGFTFSSYHMSWVRQAPGKGLELVAAINSNDINTYYLDTVKGRFTISRDIAKNSLYLQMNSLRAEDTAVYYCARHEDYYGFAMDYWGQGTLVTVSS VL: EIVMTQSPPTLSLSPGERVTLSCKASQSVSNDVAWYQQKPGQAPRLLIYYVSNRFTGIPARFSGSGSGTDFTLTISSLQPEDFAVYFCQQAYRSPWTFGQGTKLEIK . Reported Relative activity (%), EC50 COM701/EC50 antibody?
128

Item under review: Hu14 (antibody, IgG4, V domains shown, humanized IgG4) VH: EVQLVESGGGLVKPGGSLRLSCAASGFTFSSYHMSWVRQAPGKGLELVSAISRDGDSTYYPDTVKGRFTISRDNAKNSLYLQMNSLRAEDTAVYYCSRHEDYFGFAMDSWGQGTLVTVSS VL: AIQMTQSPSSLSASVGDRVTITCKASQSVTNDVAWYQQKPGKAPKLLIYYVSNHYTGVPSRFSGSGSGTDFTLTISSLQPEDFATYFCQQAYRSPWTFGQGTKLEIK . Reported Relative activity (%), EC50 COM701/EC50 antibody?
215

Item under review: Hu18 (antibody, IgG4, V domains shown, humanized IgG4) VH: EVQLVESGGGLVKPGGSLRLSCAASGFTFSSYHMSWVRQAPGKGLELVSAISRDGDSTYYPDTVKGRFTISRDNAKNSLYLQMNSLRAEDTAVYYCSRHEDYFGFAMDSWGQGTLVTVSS VL: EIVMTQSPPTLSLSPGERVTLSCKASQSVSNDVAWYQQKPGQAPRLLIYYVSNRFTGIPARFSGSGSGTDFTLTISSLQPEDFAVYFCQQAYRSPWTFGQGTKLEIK . Reported Relative activity (%), EC50 COM701/EC50 antibody?
209

Item under review: Hu23 (antibody, IgG4, V domains shown, humanized IgG4) VH: EVQLVESGGGLVKPGGSLRLSCAASGFTFSSYHMSWVRQAPGKGLELVSAISRDGDSTYYPDTVKGRFTISRDDAENSLYLQMNSLRAEDTAVYYCSRHEDYFGFAMDSWGQGTLVTVSS VL: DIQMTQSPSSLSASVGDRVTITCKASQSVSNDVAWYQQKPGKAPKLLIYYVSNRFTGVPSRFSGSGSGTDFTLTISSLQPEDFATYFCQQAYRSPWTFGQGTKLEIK . Reported Relative activity (%), EC50 COM701/EC50 antibody?
217

Item under review: Hu60 (antibody, IgG4, V domains shown, humanized IgG4) VH: EVQLVESGGGLVQPGGSLRLSCAASGFTFSSYHMSWIRQAPGKGLELVAAINSNGINTYYLDTVKGRFTISRDNAKNSLYLQMNSLRAEDTAVYYCARHEDYYGFAMDYWGQGTLVTVSS VL: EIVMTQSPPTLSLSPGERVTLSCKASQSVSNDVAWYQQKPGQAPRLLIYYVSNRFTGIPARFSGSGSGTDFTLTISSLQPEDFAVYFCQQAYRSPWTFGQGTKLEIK . Reported Relative activity (%), EC50 COM701/EC50 antibody?
261

Item under review: Hu25 (antibody, IgG4, V domains shown, humanized IgG4) VH: EVQLVESGGGLVQPGGSLRLSCAASGFTFSSYHMSWVRQAPGKGLELVAAISRDGDSTYYPDTVKGRFTISRDNAKNSLYLQMNSLRAEDTAVYYCSRHEDYFGFAMDSWGQGTLVTVSS VL: DIVMTQSPDSLAVSLGERATINCKASQSVTNDVAWYQQKPGQPPKLLIYYVSNHYTGVPDRFSGSGSGTDFTLTISSLQAEDVAVYFCQQAYRSPWTFGQGTKLEIK . Reported Relative activity (%), EC50 COM701/EC50 antibody?
157
